# TESTED_SYSTEM: T1, SARS-CoV-2 RBD (RBD-luciferase antigen of the split-luciferase reporter) (SARS-CoV-2, UniProt P0DTC2 319-541)
# T1 construct: domain: RBD
# ASSAY_SUMMARY: split-luciferase reporter of RBD-hACE2 interaction; antibody against hACE2
Entries annotated with measured % inhibition of RBD-hACE2 binding

BINDER | % inhibition of RBD-hACE2 binding
3F5 (antibody, V domains shown, also called 1-3F5) VH: QVTLKESGPGILQPSQTLSLTCSFSGFSLSTSGMGVSWIRQPSGKGLEWLAHIYWDDDKRYNPSLKSRLTISKDTSSSQVFLKITSVDTVDTATYYCARRGPLITTDGTFDVWGAGTTVTVSS VL: DIVMTQSRKFMSTSVGDRVSITCKASQDVGTSVAWYQQKPGQSPKLLIYWASTRHTGVPDRFTGSGSGTDFTLTINSVQSEDLADYFCQQYSSYPYTFGGGTKLEMK | > 80%
3B3 (antibody, V domains shown, also called 3B3 clone; 1-3B3) VH: DVQLQESGPGLVKPSQSLSLTCTVTGYSITSDYAWIWIRQFPGNKLEWMAYISYSGTTSYNPSLKSRISITRDTSKNQFFLQLNSVTTEDTATYYCAGRRGAYYGNYEEDYWGRGTSVTVSS VL: QIVLTQSPAIMSASPGEKVTMTCSSSSIVNYMYWYQQKPGSSPRLLIYDTSTLASGVPVRFSGSGSGTSYSLTISRMEAEDAATYYCQQWSSYPYTFGGGTKLEIK | > 80%

In the following, a different binder is considered.
Which % inhibition of RBD-hACE2 binding reading was recorded for the binder 3A7 (antibody, V domains shown, also called 3A7 clone) VH: QVTLKESGPGILQPSQTLSLTCSFSGFSLSTSGMGVSWIRQPSGKGLEWLAHIYWDDDKRYNPSLKSRLTISKDTSSSQVFLKITSVDTVDTATYYCARRGPLITTDGTFDVWGAGTTVTVSS VL: DIVMTQSRKFMSTSVGDRVSITCKASQDVGTSVAWYQQKPGQSPKLLIYWASTRHTGVPDRFTGSGSGTDFTLTINSVQSEDLADYFCQQYSSYPYTFGGGTKLEMK ? > 80%
